- Tgt: HLA-A*02:06
- Experiment Summary: IEDB peptide-MHC binding, purified MHC/competitive/radioactivity; filed as Kd, often an IC50 or EC50 that approximates it; bounds were set here for any values at or beyond the usual limits of such assays
- Measurement Conditions: source organism: Dengue virus 1 Nauru/West Pac/1974
Measured Metric: pKd
One number for each entry, as −log10 of the molar value.

Briefly, pKd measured for `QIFGTAYGV` : 8.44

###

- Tgt: HLA-A*30:01
- Experiment Summary: IEDB peptide-MHC binding, purified MHC/direct/fluorescence; filed as Kd, often an IC50 or EC50 that approximates it; bounds were set here for any values at or beyond the usual limits of such assays
- Measurement Conditions: source organism: Pseudomonas aeruginosa
Measured Metric: pKd
One number for each entry, as −log10 of the molar value.

Briefly, pKd measured for `YTFCRLNVK` : 7.86
